System: NK-YS (IL-2 2.5 ng/mL);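 note: normalised to DMSO-only wells as negative and benzethonium chloride as positive control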
Experiment: percent inhibition of viability; higher = more inhibition
Settings: 72 h; 0.1 nM
Overview of recorded percent inhibition of viability for various compounds
Write the answer as a number in %, unit excluded.

COMPOUND: COc1cc2c(N3CCN(C(=O)Nc4ccc(OC(C)C)cc4)CC3)ncnc2cc1OCCCN1CCCCC1 [Tandutinib] (max concentration tested 1000 nM)
percent inhibition of viability [%]: 2.01
//
COMPOUND: O=C(Nc1c[nH]nc1-c1nc2ccc(CN3CCOCC3)cc2[nH]1)NC1CC1 [AT9283] (max concentration tested 1000 nM)
percent inhibition of viability [%]: -4.25
//
COMPOUND: CC(C)n1nc(-c2ccc3oc(N)nc3c2)c2c(N)ncnc21 [INK128] (max concentration tested 1000 nM)
percent inhibition of viability [%]: -11.2

# input Which percent inhibition of viability is reported for this compound? COc1cc2nccc(Oc3ccc(NC(=O)C4(C(=O)Nc5ccc(F)cc5)CC4)cc3)c2cc1OC [Cabozantinib] (max concentration tested 1000 nM)
# output -3.98

# input May I ask what percent inhibition of viability has been recorded for CO[C@H]1C[C@@H]2CC[C@@H](C)[C@@](O)(O2)C(=O)C(=O)N2CCCC[C@H]2C(=O)O[C@H]([C@H](C)C[C@@H]2CC[C@@H](O)[C@H](OC)C2)CC(=O)[C@H](C)/C=C(\C)[C@@H](O)[C@@H](OC)C(=O)[C@H](C)C[C@H](C)/C=C/C=C/C=C/1C [Sirolimus] (max concentration tested 100 nM) ?
# output 1.64

----------
Tested on: normal primary NK cells, pool 1 (3 donors) (IL-2 2.5 ng/mL)
Assay: relative IC50 (inflection point of fitted viability curve, relative to fitted max inhibition); higher = less sensitive
Settings: 72 h
Documented relative IC50 across a set of molecules

See these solved cases before continuing.
SMILES ENTRY: CNC(=O)c1nn(C)c2c1C(C)(C)Cc1cnc(Nc3ccc(N4CCN(C)CC4)cc3)nc1-2
SYSTEM: normal primary NK cells, pool 1 (3 donors) (IL-2 2.5 ng/mL)
relative IC50: 1100 nM

SMILES ENTRY: CC(=O)[C@]1(O)Cc2c(O)c3c(c(O)c2[C@@H](O[C@H]2C[C@H](N)[C@H](O)[C@H](C)O2)C1)C(=O)c1ccccc1C3=O
SYSTEM: normal primary NK cells, pool 1 (3 donors) (IL-2 2.5 ng/mL)
relative IC50: 17.3 nM

SMILES ENTRY: CC[C@@]1(O)C(=O)OCc2c1cc1n(c2=O)Cc2cc3c(CN(C)C)c(O)ccc3nc2-1
SYSTEM: normal primary NK cells, pool 1 (3 donors) (IL-2 2.5 ng/mL)
relative IC50: 772 nM

SMILES ENTRY: COc1ccc(-c2ccc3ncc4c(c3c2)n(-c2ccc(N3CCNCC3)c(C(F)(F)F)c2)c(=O)n4C)cn1
SYSTEM: normal primary NK cells, pool 1 (3 donors) (IL-2 2.5 ng/mL)
relative IC50: 105 nM

# input I would be grateful if you could share the reported relative IC50 for `Cc1ccc(NC(=O)c2ccc(CN3CCN(C)CC3)cc2)cc1Nc1nccc(-c2cccnc2)n1` .
# output 1650 nM

# input Fill in the blank: the reported relative IC50 of `CCC/C=C/C=C/C(=O)O[C@H]1/C(=C/C(=O)OC)C[C@H]2C[C@H]([C@@H](C)O)OC(=O)C[C@H](O)C[C@@H]3C[C@H](OC(C)=O)C(C)(C)[C@](O)(C[C@@H]4C/C(=C/C(=O)OC)C[C@H](/C=C/C(C)(C)[C@]1(O)O2)O4)O3` is ____.
# output > 100 nM

# input Tell me the measured relative IC50 of `Cc1cc(Nc2cc(N3CCN(C)CC3)nc(/C=C/c3ccccc3)n2)n[nH]1` , please.
# output 1500 nM

# input Query (molecule): `Cc1nc(N)sc1-c1ccnc(Nc2ccc(N3CCOCC3)cc2)n1` ; field requested: relative IC50
# output 1810 nM

Reference source: the supplement of paper PMC5908809
